Molecular target: UniProt O35913
Sequence (O35913 whole entry): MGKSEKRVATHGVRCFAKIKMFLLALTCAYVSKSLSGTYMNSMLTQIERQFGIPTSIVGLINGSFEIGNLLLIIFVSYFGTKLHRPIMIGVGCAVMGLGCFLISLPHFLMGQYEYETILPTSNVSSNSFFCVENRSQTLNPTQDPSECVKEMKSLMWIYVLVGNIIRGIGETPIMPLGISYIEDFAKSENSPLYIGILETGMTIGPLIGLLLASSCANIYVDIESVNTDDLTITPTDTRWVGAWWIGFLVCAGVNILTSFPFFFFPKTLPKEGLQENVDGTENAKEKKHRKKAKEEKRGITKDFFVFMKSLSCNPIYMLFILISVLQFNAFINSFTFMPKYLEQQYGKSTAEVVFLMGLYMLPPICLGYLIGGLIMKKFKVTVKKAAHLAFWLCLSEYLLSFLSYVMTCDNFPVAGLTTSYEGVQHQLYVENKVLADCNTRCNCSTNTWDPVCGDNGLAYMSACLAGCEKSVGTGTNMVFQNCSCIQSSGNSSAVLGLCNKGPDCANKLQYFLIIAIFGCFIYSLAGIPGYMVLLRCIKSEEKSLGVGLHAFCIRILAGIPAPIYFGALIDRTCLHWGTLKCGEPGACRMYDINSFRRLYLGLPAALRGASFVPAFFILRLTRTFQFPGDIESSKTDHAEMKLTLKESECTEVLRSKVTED
Test: TP_TRANSPORTER: uptake in Xenopus laevis oocytes
Format: functional, cell-based, Oocyte
Details: Xenopus laevis oocytes expressing the transporter
Quantity measured: Km
# number then unit; no other words

Identify measured Km associated with C[C@@H]1O[C@@H](O[C@H]2C[C@@H](O)[C@]3(CO)[C@H]4[C@H](O)C[C@]5(C)[C@@H](C6=CC(=O)OC6)CC[C@]5(O)[C@@H]4CC[C@]3(O)C2)[C@H](O)[C@H](O)[C@H]1O [OUABAIN]
470 µM
